- Tested on: HS 578T breast
- TEST: NCI tumour cell line growth inhibition, 48 h; in the data active = GI50 below about 0.43 µM; inactive = the rest
Outcome codes: True for active, False for inactive

{"columns": ["MOLECULE", "EXPERIMENTAL_TARGET", "DISCRETE_LABEL"],
 "data": [
  ["N#Cc1c(N/N=C\\c2ccc(Cl)cc2)nc(N)nc1N1CCOCC1", "HS 578T breast", "False"],
  ["CN(C)CCOc1ccccc1NC1=C(Cl)C(=O)C(Nc2ccccc2OCCN(C)C)=C(Cl)C1=O", "HS 578T breast", "False"],
  ["Cn1cc(C2=C(c3cn(CCCCCO)c4ccccc34)C(=O)NC2=O)c2ccccc21", "HS 578T breast", "False"],
  ["CCCN(CCC)c1ccc(C=O)c(C)c1", "HS 578T breast", "False"],
  ["Cn1c(-c2c(N)n(Cc3ccc(F)cc3)c3nc(C#N)c(C#N)nc23)nc2ccccc21", "HS 578T breast", "False"],
  ["Cn1c(=O)c(Oc2ccc(F)cc2F)cc2cnc(NC3CCOCC3)nc21", "HS 578T breast", "False"],
  ["COc1ccc(-c2[nH]nc(N)c2-c2cc(OC)c(OC)c(OC)c2)cc1", "HS 578T breast", "True"],
  ["C=C1CC2C3C=C(C)C4=CC(=O)CC[C@]4(C)C3CC[C@]2(C)[C@@]1(OC(C)=O)C(C)=O (stereo not given in full)", "HS 578T breast", "False"],
  ["CC/C=C\\C[C@H](O)C/C=C1/C(=O)C=C[C@@H]1C/C=C\\CCCCO", "HS 578T breast", "False"],
  ["C=C1C(=O)O[C@H]2[C@H]1CC/C(CNC(=O)/C=C/c1ccccc1F)=C\\CC[C@@]1(C)O[C@@H]21", "HS 578T breast", "False"]
]}

###

- Test system: SK-MEL-28 melanoma
- TEST: NCI tumour cell line growth inhibition, 48 h
Residues, ends and D or L forms follow the SMILES beside them. *: point of attachment. Cbz = O=C(OCc1ccccc1)*
The reader will find reported TGI values listed item by item below.

{"columns": ["COMPOUND", "TGI"],
 "data": [
  ["O=C(Cc1nc2ccc([N+](=O)[O-])cc2[nH]c1=O)C(=O)Nc1ccccc1[N+](=O)[O-]", "> 100 µM"],
  ["CCCCCCCCCCOC(=O)NCCC", "> 100 µM"],
  ["NC(CCCCNCc1ccccc1)C(=O)O (stereo not given)", "> 100 µM"],
  ["CC(C)C[C@@H](C=O)NC(=O)[C@H](CC(C)C)NC(=O)[C@H](CC(C)C)NC(=O)OCc1ccccc1 (Cbz-Leu-Leu-Leu-aldehyde)", "11.6 µM"],
  ["CC/C=C\\C[C@H](O)C/C=C1/C(=O)C=C[C@@H]1C/C=C\\CCCCO", "6.87 µM"]
]}

###

Measured TGI, listed per entry.
- Tested on: SK-MEL-2 melanoma
- TEST: NCI tumour cell line growth inhibition, 48 h

{"columns": ["COMPOUND", "TGI"],
 "data": [
  ["Nc1ncn([C@H]2C[C@H](OP(=O)(O)OC[C@H]3O[C@@H](n4cnc5c(=O)[nH]c(N)nc54)C[C@@H]3O)[C@@H](CO)O2)c(=O)n1", "> 100 µM"],
  ["CC1=CC(=O)N(n2c(-c3ccccc3)n[nH]c2=O)C1=O", "> 100 µM"],
  ["COc1ccc(-c2nc3c(C(=O)NCCN(C)C)cccc3c3ccccc23)cc1", "18.4 µM"],
  ["N#CC1=C(N)Oc2c(sc3c(Br)cccc23)C1c1ccc(Cl)cc1 (centres undefined)", "12.3 µM"],
  ["CCCC[C@H]1C(=O)O[C@H](C)[C@H](NC(=O)c2cccc(NC=O)c2OC)C(=O)O[C@@H](C)[C@@H]1OC(=O)CC(C)C (tested in a mixture with another compound)", "29 µM"],
  ["O=C(O)CCCN=C(C1=C(O)C(=O)N(c2ccccc2)C1=O)c1ccccc1", "> 100 µM"],
  ["CC(=O)OCCCC#CC#Cc1cccc(=O)o1", "> 100 µM"],
  ["C=C1c2nc3ccccc3n2C=C(c2ccc(Cl)cc2)N1c1ccc(OCCN2CCCCC2)cc1", "> 100 µM"],
  ["CCCCCCCCCCCCSC(=S)c1c(C)[nH]n(CCCCCCCCCCCC)c1=O", "> 100 µM"]
]}

Attribution: PubChem BioAssay (NCI)
